Cited source for all entries: patent US12472272B2

- Test system: PSMA-expressing LNCAP cancer xenografts
- experimentalProtocol: Biodistribution of ^68Ga-labeled PSMA-targeting tracers
- Format: in vivo, mice
- experimentalParameters: 1 h post-injection
valueType: Tissue (% ID/g): Heart
Write the value in % ID/g as a bare number.

Qu. Consider the compound O=C([O-])CN1CCN(CC(=O)[O-])CCN(CC(=O)NC[C@H]2CC[C@H](C(=O)N[C@@H](Cc3c4ccccc4cc4ccccc34)C(=O)NCCCC[C@H](NC(=O)N[C@@H](CCC(=O)O)C(=O)O)C(=O)O)CC2)CCN(CC(=O)[O-])CC1.[68Ga+3] [^68Ga-HTK03041] . State its measured Tissue (% ID/g): Heart.
Ans. 1.82

Qu. Consider the compound O=C([O-])CN1CCN(CC(=O)[O-])CCN(CC(=O)NC[C@H]2CC[C@H](C(=O)N[C@@H](Cc3ccc4cc5ccccc5cc4c3)C(=O)NCCCC[C@H](NC(=O)N[C@@H](CCC(=O)O)C(=O)O)C(=O)O)CC2)CCN(CC(=O)[O-])CC1.[68Ga+3] [^68Ga-HTK03027] . State its measured Tissue (% ID/g): Heart.
Ans. 0.56

Qu. Consider the compound CCCCCC[C@H](NC(=O)[C@H]1CC[C@H](CNC(=O)CN2CCN(CC(=O)[O-])CCN(CC(=O)[O-])CCN(CC(=O)[O-])CC2)CC1)C(=O)NCCCC[C@H](NC(=O)N[C@@H](CCC(=O)O)C(=O)O)C(=O)O.[68Ga+3] [^68Ga-HTK03026] . State its measured Tissue (% ID/g): Heart.
Ans. 0.30

Qu. Consider the compound O=C([O-])CN1CCN(CC(=O)[O-])CCN(CC(=O)NC[C@H]2CC[C@H](C(=O)N[C@@H](Cc3ccc4ccc5cccc6ccc3c4c56)C(=O)NCCCC[C@H](NC(=O)N[C@@H](CCC(=O)O)C(=O)O)C(=O)O)CC2)CCN(CC(=O)[O-])CC1.[68Ga+3] [^68Ga-HTK03029] . State its measured Tissue (% ID/g): Heart.
Ans. 1.25

====

- System: PSMA-expressing LNCAP cancer xenografts
- experimentalProtocol: Biodistribution of ^68Ga-labeled PSMA-targeting tracers
- Type: in vivo, mice
- experimentalParameters: 1 h post-injection
valueType: Tissue (% ID/g): Pancreas
Don't forget the unit after the number, please.

Qu. Consider the compound CCCCCC[C@H](NC(=O)[C@H]1CC[C@H](CNC(=O)CN2CCN(CC(=O)[O-])CCN(CC(=O)[O-])CCN(CC(=O)[O-])CC2)CC1)C(=O)NCCCC[C@H](NC(=O)N[C@@H](CCC(=O)O)C(=O)O)C(=O)O.[68Ga+3] [^68Ga-HTK03026] . State its measured Tissue (% ID/g): Pancreas.
Ans. 0.71 ± 1.04 % ID/g

Qu. Consider the compound O=C([O-])CN1CCN(CC(=O)[O-])CCN(CC(=O)NC[C@H]2CC[C@H](C(=O)N[C@@H](Cc3ccc4cc5ccccc5cc4c3)C(=O)NCCCC[C@H](NC(=O)N[C@@H](CCC(=O)O)C(=O)O)C(=O)O)CC2)CCN(CC(=O)[O-])CC1.[68Ga+3] [^68Ga-HTK03027] . State its measured Tissue (% ID/g): Pancreas.
Ans. 0.57 ± 0.20 % ID/g

Qu. Consider the compound O=C([O-])CN1CCN(CC(=O)[O-])CCN(CC(=O)NC[C@H]2CC[C@H](C(=O)N[C@@H](Cc3c4ccccc4cc4ccccc34)C(=O)NCCCC[C@H](NC(=O)N[C@@H](CCC(=O)O)C(=O)O)C(=O)O)CC2)CCN(CC(=O)[O-])CC1.[68Ga+3] [^68Ga-HTK03041] . State its measured Tissue (% ID/g): Pancreas.
Ans. 1.47 ± 0.16 % ID/g

Qu. Consider the compound O=C([O-])CN1CCN(CC(=O)[O-])CCN(CC(=O)NC[C@H]2CC[C@H](C(=O)N[C@@H](Cc3ccc4ccc5cccc6ccc3c4c56)C(=O)NCCCC[C@H](NC(=O)N[C@@H](CCC(=O)O)C(=O)O)C(=O)O)CC2)CCN(CC(=O)[O-])CC1.[68Ga+3] [^68Ga-HTK03029] . State its measured Tissue (% ID/g): Pancreas.
Ans. 0.94 ± 0.18 % ID/g
